Value source: paper PMC10786891

Answer each item with its documented Kd.
Target: T1, EsCas13d, nuclease-dead (Eubacterium siraeum, UniProt B0MS50, R295A;H300A;R849A;H854A)
T1 sequence: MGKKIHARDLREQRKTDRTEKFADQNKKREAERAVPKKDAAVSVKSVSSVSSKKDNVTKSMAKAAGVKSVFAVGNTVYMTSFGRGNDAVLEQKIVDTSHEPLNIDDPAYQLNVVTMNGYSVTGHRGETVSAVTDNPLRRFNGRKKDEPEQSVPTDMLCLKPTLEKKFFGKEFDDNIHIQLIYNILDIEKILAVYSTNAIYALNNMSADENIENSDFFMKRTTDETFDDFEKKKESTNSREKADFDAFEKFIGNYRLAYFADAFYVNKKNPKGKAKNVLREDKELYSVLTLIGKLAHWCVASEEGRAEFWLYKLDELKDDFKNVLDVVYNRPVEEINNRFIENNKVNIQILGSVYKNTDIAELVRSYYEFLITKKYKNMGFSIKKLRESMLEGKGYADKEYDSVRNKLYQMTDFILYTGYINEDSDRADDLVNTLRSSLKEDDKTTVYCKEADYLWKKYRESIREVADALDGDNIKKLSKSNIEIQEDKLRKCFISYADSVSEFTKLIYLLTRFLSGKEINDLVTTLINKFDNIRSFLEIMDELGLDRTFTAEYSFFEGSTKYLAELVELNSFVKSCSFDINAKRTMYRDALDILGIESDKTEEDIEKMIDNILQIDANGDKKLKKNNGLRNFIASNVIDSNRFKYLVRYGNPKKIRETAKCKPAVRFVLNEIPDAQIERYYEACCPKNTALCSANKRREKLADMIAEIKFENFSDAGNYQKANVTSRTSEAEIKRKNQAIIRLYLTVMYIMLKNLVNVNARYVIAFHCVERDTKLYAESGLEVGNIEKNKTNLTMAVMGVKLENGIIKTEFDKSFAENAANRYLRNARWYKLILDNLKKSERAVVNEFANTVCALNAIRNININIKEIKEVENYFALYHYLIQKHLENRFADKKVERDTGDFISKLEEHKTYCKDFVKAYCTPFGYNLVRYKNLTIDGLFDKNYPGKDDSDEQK
Assay: crRNA (strand 1, pre-loaded); Mg2+; 40 mM Tris-HCl pH 7.5, 150 mM NaCl, 6 mM MgCl2, 1 mM DTT, 0.1% Tween-20, 0.2 mg/ml BSA; 25 C; 10 min per concentration, then washed
Settings: tags: His6-TwinStrep-SUMO cleaved; N-terminal SNAP kept (SNAP-Surface 488); label: 3' end held by stalled T7 RNA polymerase
Answer with the value and then the unit.

**Query** Given the entry target 3 insU 3' of 11,insG 3' of 5 (mixed) RNA 1: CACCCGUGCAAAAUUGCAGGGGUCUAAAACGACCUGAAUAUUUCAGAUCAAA RNA 2: GGGAAUGGAUCCACAUCUACGAAUUCGUUUUUGAUCUGAAAUUAUUCAGGGUCUGCAGAUCGGAAGAGCACACGU , report its measured Kd.
**Result** 0.104 µM

**Query** Endpoint output: Kd of target 1 MT 5'PFS GAG 3'PFS AGU (mixed) RNA 1: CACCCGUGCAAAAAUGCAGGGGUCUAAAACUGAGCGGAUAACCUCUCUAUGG RNA 2: GGGAAUGGAUCCACAUCUACGAAUUCGAGCCAUAGAGAGGUUAUCCGCUCAAGUAGAUCGGAAGAGCACACGU . Value?
**Result** 0.0475 µM
